- EXPERIMENTAL_PROTOCOL: Caco-2 flux assay for cell permeability
- Format: in vitro ADME
- CONDITION_SET: human; Caco-2, Papp (B-A) to Papp (A-B)
MEASURED_ENDPOINT: efflux ratio at 2 h
Response field accepts a number only; no unit should be typed.

Request: Item under review: CC(C)(C)[C@H](c1cc(-c2cc(F)ccc2F)cn1Cc1ccccc1)N(CCCN)C(=O)CSC[C@H](NC(=O)CCOCCOCCOCCOCCNC(=O)CNC(=O)C(CC(=O)O)SC[C@H](N)C(=O)O)C(=O)O.O=C(O)C(F)(F)F.O=C(O)C(F)(F)F (stereo partly shown) . Reported efflux ratio at 2 h?
Result: 1.5
